Recorded % Cell Viability by entry
- Test system: TZM-bl cell line
- Assay type: cell-based
- TEST CONDITIONS: human, 1 μM
READOUT KIND: % Cell Viability (%)

# COMPOUND, TEST RESULT
data = [
    ("Oc1c(CCC2CCOCC2)c(-c2ccc(C(F)(F)F)cc2)nn1-c1nc2ccccc2[nH]1", 80.8),
    ("CC(C)OC(=O)N1CCC(c2nn(-c3nc4ccccc4[nH]3)c(O)c2CC2CCOCC2)CC1", 95.6),
    ("Cc1ccn(CCc2c(-c3ccc(C(F)(F)F)cc3)nn(-c3nc4cccnc4[nH]3)c2O)n1", 98.3),
    ("Oc1c(CCC2CCOCC2)c(-c2cccc(F)c2)nn1-c1nc2ccccc2[nH]1", 77.7),
    ("CC(C)(C)OC(=O)N1CCC(c2nn(-c3nc4ccccc4[nH]3)c(O)c2CCc2ccc(F)cc2)CC1", 79.2),
    ("CC(=O)N1CCCC(Cc2c(C3CC3)nn(-c3nc4ccccc4[nH]3)c2O)C1 (centres unmarked)", 99),
    ("CC(C)(C)OC(=O)N1CCC(c2nn(-c3nc4cccnc4[nH]3)c(O)c2CCc2ccc(F)cc2)CC1", 100),
    ("O=C(C1CC1)N1CCC(CCc2c(C3CC3)nn(-c3nc4cc(Cl)ccc4[nH]3)c2O)CC1", 97.2),
]
